- System tested: Adenosine A2 receptor (Rattus norvegicus, UniProt P29276+P30543)
Quantity kind: Ki (µM)
Reply numerically in µM, unit not repeated.

>  <Compound>
C[C@H](Cc1ccccc1)Nc1ncnc2c1ncn2C1O[C@H](C)[C@@H](O)[C@H]1O (stereo partly drawn)

>  <System tested>
Adenosine A2 receptor (Rattus norvegicus, UniProt P29276+P30543)

>  <Measurement unit>
µM

>  <Ki>
3.3

$$$$

Return reported Ki; argument: C[C@H](Cc1ccccc1)Nc1ncnc2c1ncn2[C@@H]1O[C@H](CO)C[C@H]1O
6.9

* * *

- System tested: Adenosine A2 receptor (Rattus norvegicus, UniProt P29276+P30543)
Simple rule here: Ki less than 40 µM is 1, otherwise -1.

# count of solved cases: 6
>  <Compound>
C[C@H](Cc1ccccc1)Nc1ncnc2c1ncn2C1OCC(O)C(O)C1O (stereo partly specified)

>  <Label class>
-1

$$$$
>  <Compound>
C[C@H](Cc1ccccc1)Nc1ncnc2c1ncn2CC(O)C(O)C(O)CO (stereo partly specified)

>  <Label class>
-1

$$$$
>  <Compound>
CSC[C@H]1OC(n2cnc3c(N[C@H](C)Cc4ccccc4)ncnc32)[C@H](O)[C@@H]1O (stereo partly specified)

>  <Label class>
-1

$$$$
>  <Compound>
C[C@H](Cc1ccccc1)Nc1ncnc2c1ncn2C1CCCCO1 (stereo partly specified)

>  <Label class>
1

$$$$
>  <Compound>
C[C@H](Cc1ccccc1)Nc1ncnc2c1ncn2C1CCCO1 (stereo partly specified)

>  <Label class>
1

$$$$
>  <Compound>
C[C@H](Cc1ccccc1)Nc1ncnc2c1ncn2C1O[C@H](CCl)[C@@H](O)[C@H]1O (stereo partly specified)

>  <Label class>
1

$$$$

Turning now to a further compound:
A record lists C[C@H](Cc1ccccc1)Nc1ncnc2c1ncn2C1OC[C@](O)(CO)[C@H]1O (stereo partly specified) . Is its Ki below 40 µM?
-1

* * *

- System tested: Adenosine receptor A1 (Rattus norvegicus, UniProt P25099)
- Sequence (P25099 whole entry): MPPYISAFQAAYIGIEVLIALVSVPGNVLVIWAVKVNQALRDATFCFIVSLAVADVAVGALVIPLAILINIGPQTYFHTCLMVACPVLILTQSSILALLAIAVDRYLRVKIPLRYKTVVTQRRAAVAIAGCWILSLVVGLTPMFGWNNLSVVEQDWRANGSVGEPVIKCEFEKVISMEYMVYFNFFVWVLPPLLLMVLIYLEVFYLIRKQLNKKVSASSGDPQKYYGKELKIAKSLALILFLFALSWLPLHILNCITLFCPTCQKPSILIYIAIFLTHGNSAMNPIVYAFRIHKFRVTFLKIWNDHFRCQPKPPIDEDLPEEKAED
Quantity kind: Ki

>  <Molecule>
C[C@H](Cc1ccccc1)Nc1ncnc2c1ncn2C[C@@H](O)CO

>  <Ki>
> 10 µM

$$$$
>  <Molecule>
C[C@H](Cc1ccccc1)Nc1ncnc2c1ncn2COCCO

>  <Ki>
68 µM

$$$$
>  <Molecule>
C[C@H](Cc1ccccc1)Nc1[nH]cnc2ncnc1-2

>  <Ki>
9.6 µM

$$$$
>  <Molecule>
C[C@H](Cc1ccccc1)Nc1ncnc2c1ncn2[C@H]1C[C@H](O)[C@@H](CO)O1

>  <Ki>
1.9 µM

$$$$
>  <Molecule>
C[C@H](Cc1ccccc1)Nc1ncnc2c1ncn2C1OCC(O)C(O)C1O (stereo partly specified)

>  <Ki>
5.7 µM

$$$$

Next item in the queue.
Return reported Ki; argument: C[C@H](Cc1ccccc1)Nc1ncnc2c1ncn2C1O[C@H](C)[C@@H](O)[C@H]1O (stereo partly specified)
0.025 µM

* * *

As an illustration, consider measured Ki for molecules on Adenosine A2 receptor (Rattus norvegicus, UniProt P29276+P30543).

>  <Molecule>
C[C@H](Cc1ccccc1)Nc1ncnc2c1ncn2C[C@H](O)CO

>  <System tested>
Adenosine A2 receptor (Rattus norvegicus, UniProt P29276+P30543)

>  <Ki>
> 10 µM

$$$$
>  <Molecule>
C[C@H](Cc1ccccc1)Nc1ncnc2c1ncn2C1CCCC(O)C1O (some centres undefined)

>  <System tested>
Adenosine A2 receptor (Rattus norvegicus, UniProt P29276+P30543)

>  <Ki>
> 10 µM

$$$$
>  <Molecule>
C[C@H](Cc1ccccc1)Nc1[nH]cnc2ncnc1-2

>  <System tested>
Adenosine A2 receptor (Rattus norvegicus, UniProt P29276+P30543)

>  <Ki>
39 µM

$$$$

Next item in the queue.
Return reported Ki; argument: C[C@H](Cc1ccccc1)Nc1ncnc2c1ncn2C[C@@H](O)CO
> 10 µM
